Numbers sourced from paper PMC8881077.

molecular target: ratAChE (Rattus norvegicus, UniProt P37136); construct: AChE from 5% rat cortex homogenate or human erythrocytes (Sigma Co.); from tissue; host or cells: 5% rat cortex homogenate; assay: biochemical; conditions: Selectivity Index = IC50 (BuChE)/IC50 (AChE), rat enzymes
Label Met for high-side SI (at or above 2) and Not met for low-side SI (below it).

Identify whether the reported SI of the following molecule is 2 or greater: CC1CC(C)CN(CCCOc2ccc(-c3cc(=O)c4c(O)cc(OCCCN5CC(C)CC(C)C5)cc4o3)cc2)C1 (centres unmarked) [Compound 10f]
Not met

Check O=C1CC(c2ccc(OCCCN3CCC(c4ccccc4)CC3)cc2)Oc2cc(OCCCN3CCC(c4ccccc4)CC3)cc(O)c21 (centres unmarked) too.
Met

Check CC1CC(C)CN(CCCCCOc2ccc(-c3cc(=O)c4c(O)cc(OCCCCCN5CC(C)CC(C)C5)cc4o3)cc2)C1 (centres unmarked) [Compound 10p] too.
Met

Check O=C1CC(c2ccc(OCCCCN3CCC(Cc4ccccc4)CC3)cc2)Oc2cc(OCCCCN3CCC(Cc4ccccc4)CC3)cc(O)c21 (centres unmarked) too.
Met

Check CCN1CCN(CCCOc2ccc(C3CC(=O)c4c(O)cc(OCCCN5CCN(CC)CC5)cc4O3)cc2)CC1 (centres unmarked) too.
Not met

Check O=c1cc(-c2ccc(OCCCCCCN3CCc4ccccc4C3)cc2)oc2cc(OCCCCCCN3CCc4ccccc4C3)cc(O)c12 [Compound 10q] too.
Met

Check O=C1CC(c2ccc(O)cc2)Oc2cc(OCCCCN3CCCCC3)cc(O)c21 (centres unmarked) too.
Met

Check O=c1cc(-c2ccc(OCCCCCCN3CCC(c4ccccc4)CC3)cc2)oc2cc(OCCCCCCN3CCC(c4ccccc4)CC3)cc(O)c12 [Compound 10t] too.
Met

Check CCN(CCCCOc1cc(O)c2c(c1)OC(c1ccc(O)cc1)CC2=O)Cc1ccccc1OC (centres unmarked) too.
Met

Check O=c1cc(-c2ccc(OCCCCCN3CCC(Cc4ccccc4)CC3)cc2)oc2cc(OCCCCCN3CCC(Cc4ccccc4)CC3)cc(O)c12 [Compound 10m] too.
Met

Check CCN(CCCOc1ccc(C2CC(=O)c3c(O)cc(OCCCN(CC)Cc4ccccc4)cc3O2)cc1)Cc1ccccc1 (centres unmarked) too.
Met

Check CCN(CCCCCOc1ccc(-c2cc(=O)c3c(O)cc(OCCCCCN(CC)Cc4ccccc4)cc3o2)cc1)Cc1ccccc1 [Compound 10k] too.
Met

Check O=c1cc(-c2ccc(OCCCCCN3CCC(CCCc4ccccc4)CC3)cc2)oc2cc(OCCCCCN3CCC(CCCc4ccccc4)CC3)cc(O)c12 [Compound 10o] too.
Met

---

Target: ratAChE (Rattus norvegicus)
Construct: AChE from 5% rat cortex homogenate or human erythrocytes (Sigma Co.); from tissue; host or cells: 5% rat cortex homogenate
Sequence (P37136 32-614): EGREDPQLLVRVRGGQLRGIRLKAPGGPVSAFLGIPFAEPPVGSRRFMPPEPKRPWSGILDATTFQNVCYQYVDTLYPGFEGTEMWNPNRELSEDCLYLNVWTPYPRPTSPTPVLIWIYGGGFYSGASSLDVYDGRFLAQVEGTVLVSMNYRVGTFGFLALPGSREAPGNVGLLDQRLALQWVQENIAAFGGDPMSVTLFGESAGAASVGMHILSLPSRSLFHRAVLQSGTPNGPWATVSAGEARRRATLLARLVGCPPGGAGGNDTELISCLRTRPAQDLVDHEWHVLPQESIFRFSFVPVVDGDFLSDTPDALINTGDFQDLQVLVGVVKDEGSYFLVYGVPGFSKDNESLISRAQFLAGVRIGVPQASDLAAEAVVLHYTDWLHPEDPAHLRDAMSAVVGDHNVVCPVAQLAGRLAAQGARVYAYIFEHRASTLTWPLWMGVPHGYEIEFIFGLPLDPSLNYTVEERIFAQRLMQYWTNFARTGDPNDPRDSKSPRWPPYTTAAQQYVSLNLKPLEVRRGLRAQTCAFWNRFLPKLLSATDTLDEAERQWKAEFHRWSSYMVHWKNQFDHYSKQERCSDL
Test: biochemical
Conditions: from 5% rat cortex homogenate; read-out: IC50 ± SD ratAChE
Kindly apply the following: Criterion met if IC50 is less than 4 µM, Criterion not met in every other case.

# check: IC50 < 4 µM for O=C1CC(c2ccc(OCCCN3CCC(c4ccccc4)CC3)cc2)Oc2cc(OCCCN3CCC(c4ccccc4)CC3)cc(O)c21 (centres unmarked)
Criterion not met

Check CCN1CCN(CCCOc2ccc(C3CC(=O)c4c(O)cc(OCCCN5CCN(CC)CC5)cc4O3)cc2)CC1 (centres unmarked) too.
Criterion not met

Check CCN(CCCCCCOc1ccc(C2CC(=O)c3c(O)cc(OCCCCCCN(CC)Cc4ccccc4)cc3O2)cc1)Cc1ccccc1 (centres unmarked) too.
Criterion met

Check O=c1cc(-c2ccc(OCCCN3CCC(CCCc4ccccc4)CC3)cc2)oc2cc(OCCCN3CCC(CCCc4ccccc4)CC3)cc(O)c12 [Compound 10e] too.
Criterion not met

Check CC1CC(C)CN(CCCOc2ccc(-c3cc(=O)c4c(O)cc(OCCCN5CC(C)CC(C)C5)cc4o3)cc2)C1 (centres unmarked) [Compound 10f] too.
Criterion not met

Check CCN(CCCCCOc1cc(O)c2c(c1)OC(c1ccc(O)cc1)CC2=O)Cc1ccccc1 (centres unmarked) too.
Criterion met

Check O=c1cc(-c2ccc(OCCCCCCN3CCc4ccccc4C3)cc2)oc2cc(OCCCCCCN3CCc4ccccc4C3)cc(O)c12 [Compound 10q] too.
Criterion not met

Check O=c1cc(-c2ccc(OCCCCCCN3CCC(Cc4ccccc4)CC3)cc2)oc2cc(OCCCCCCN3CCC(Cc4ccccc4)CC3)cc(O)c12 [Compound 10s] too.
Criterion met

Check O=c1cc(-c2ccc(OCCCCCN3CCC(c4ccccc4)CC3)cc2)oc2cc(OCCCCCN3CCC(c4ccccc4)CC3)cc(O)c12 [Compound 10n] too.
Criterion met

Check CCN(CCCCCCOc1ccc(-c2cc(=O)c3c(O)cc(OCCCCCCN(CC)Cc4ccccc4)cc3o2)cc1)Cc1ccccc1 [Compound 10r] too.
Criterion met

Check O=c1cc(-c2ccc(OCCCCN3CCc4ccccc4C3)cc2)oc2cc(OCCCCN3CCc4ccccc4C3)cc(O)c12 [Compound 10g] too.
Criterion not met

Check O=c1cc(-c2ccc(OCCCN3CCC(Cc4ccccc4)CC3)cc2)oc2cc(OCCCN3CCC(Cc4ccccc4)CC3)cc(O)c12 [Compound 10c] too.
Criterion not met
